# credit: PubChem BioAssay AID1851

- TEST_SYSTEM: Cytochrome P450 2C9 (Homo sapiens)
- ASSAY_SUMMARY: Cytochrome panel assay with activity outcomes; for activity, negative = inhibition: % is set by controls: 0 for no effect and ±100 for the full control effect
- PROTOCOL_CONDITIONS: recombinant CYP, pro-luciferin dealkylation, luminescence, p450-cyp2c9; series mostly up to 57.1 µM
- Method: The P450 gene superfamily is involved in the metabolism and clearance of xenobiotics. This assay used various human CYP P450 isozymes to measure the dealkylation of various pro-luciferin substrates to luciferin. The luciferin is then measured by luminescence after the addition of a luciferase detection reagent. […] Inhibitors and some substrates limit the production of luciferin, and decrease measured luminescence. […] 8, Detection, 1 sec, ViewLux luminescent read […]
The campaign covered roughly 16,000 compounds. About 4,000 (25%) were called active. Not shown: some 26% with an inconclusive outcome. These entries were drawn from the full list.
ENDPOINT: activity, negative = inhibition

# activity, negative = inhibition of O=C(O)c1ccc(C(=O)Nc2cccc3ccccc23)c(C(=O)O)c1 = -2.72% [at 11.4 µM] (inactive)

According to the records, this compound Cn1ncc2c(NCCc3ccccc3)nc(Cl)nc21 displays activity, negative = inhibition of -22.7% [at 11.4 µM] (inactive)

Record O=C1[C@@H]2[C@H]3[C@H](O)[C@H](O)C/C(=N/OC[C@@H](O)COCc4ccco4)[C@@H]3CC[C@H]2C(=O)N1c1ccc(F)cc1F , field activity, negative = inhibition: -0.354% [at 11.4 µM] (inactive)

// activity, negative = inhibition lookup, compound = COCCNc1nc(-c2c(C)noc2C)nc2ccccc12 , result: 15% [at 2.29 µM] (inactive)

activity, negative = inhibition reported for this compound CN(C)c1ncnc2ccc(-c3ccccc3C#N)cc12 : -7.24% [at 2.29 µM] (inactive)

----------
- TEST_SYSTEM: Cytochrome P450 2C9 (Homo sapiens) (UniProt P11712)
- Sequence (P11712 whole entry, looked up): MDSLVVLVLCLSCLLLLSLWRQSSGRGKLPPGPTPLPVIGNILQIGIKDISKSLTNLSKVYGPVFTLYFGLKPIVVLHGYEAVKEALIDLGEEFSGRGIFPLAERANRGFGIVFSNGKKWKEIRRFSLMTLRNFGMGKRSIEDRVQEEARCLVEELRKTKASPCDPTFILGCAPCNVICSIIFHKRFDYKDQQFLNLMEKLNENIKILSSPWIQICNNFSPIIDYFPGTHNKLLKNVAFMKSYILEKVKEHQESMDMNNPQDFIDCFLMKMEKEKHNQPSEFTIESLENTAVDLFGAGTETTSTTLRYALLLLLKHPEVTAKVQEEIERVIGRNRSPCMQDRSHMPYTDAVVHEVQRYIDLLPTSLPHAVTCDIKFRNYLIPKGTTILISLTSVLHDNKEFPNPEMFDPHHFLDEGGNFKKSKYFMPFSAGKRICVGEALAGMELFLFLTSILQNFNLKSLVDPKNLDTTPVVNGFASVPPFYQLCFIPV
- ASSAY_SUMMARY: Cytochrome panel assay with activity outcomes; for activity, negative = inhibition: % is set by controls: 0 for no effect and ±100 for the full control effect
- PROTOCOL_CONDITIONS: recombinant CYP, pro-luciferin dealkylation, luminescence, p450-cyp2c9; series mostly up to 57.1 µM
Out of some 16,000 compounds screened, about 4,000 (25%) were called active. Not shown: some 26% with an inconclusive outcome. Only a sample is shown.
ENDPOINT: activity, negative = inhibition

CO[C@@H]1COC(=O)C/C=C\[C@@H](C)COC(=O)[C@H](Cc2ccccc2)NC(=O)C/C=C\[C@H]1C: -17.6% [at 11.4 µM] (inactive)

Now for the compound whose activity, negative = inhibition we want.
activity, negative = inhibition for c1ccc2c(NC3CC3)nc(-c3ccoc3)nc2c1 is -17.7% [at 2.29 µM] (inactive)

----------
- TEST_SYSTEM: Cytochrome P450 2C9 (Homo sapiens) (UniProt P11712)
- ASSAY_SUMMARY: Cytochrome panel assay with activity outcomes
- PROTOCOL_CONDITIONS: recombinant CYP, pro-luciferin dealkylation, luminescence, p450-cyp2c9; series mostly up to 57.1 µM
About 4,000 (25%) of roughly 16,000 compounds were called active. Not shown: some 26% with an inconclusive outcome. The call rests on the fitted dose curve; in most records, active means well fitted curve in the direction sought with a large enough effect; inconclusive means small, poorly fitted or top-dose-only effect, or effect the other way; inactive means no such curve, though single readings can be large or run the other way. These entries were drawn from the full list.
Choose one outcome from this list and give only that: yes = active, no = inactive

CCOC(=O)c1sc2nc3c(cc2c1N)COC(C(C)C)C3 (centres undefined): no
COC(=O)c1cc(C#N)c(NCc2ccc(Cl)cc2Cl)nc1C: no
Cc1cc(C)c2cc(C#N)c(NCCOC(=O)c3ccccc3C)nc2c1: yes
CC1(C)OC(=O)NC1=O: no
COCC(=O)N(C)c1nnc(-c2ccc([N+](=O)[O-])cc2)s1: no
O=C(Cn1c(-c2cscn2)nc2ccccc21)Nc1cc(F)ccc1F: yes

# input Look up the recorded call for CCOC(=O)c1cc(C#N)c(Oc2ccccc2OC)nc1-c1ccccc1 in this test.
# output yes

# input // param item: c1ccc(C2OCC3(CO2)COC(c2ccccc2)OC3)cc1 (centres undefined) ; yields the recorded call
# output no
